B1: library; a variant is named by its letters at N, in order (parent)
chain: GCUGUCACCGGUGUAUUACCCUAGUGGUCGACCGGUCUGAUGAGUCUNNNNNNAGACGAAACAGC

- Variants of: B1
- Protocol description: normalized RNA/DNA level with ligand (relative to sTRSVctl = 100) (log10 (% of sTRSVctl)); ligand: hypoxanthine (xanthine aptamer); higher = less ribozyme self-cleavage, higher mRNA level
- Stated conditions: ligand concentration (+) RNA-Seq: 5 mM, HEK293T, reporter: mCherry (pCS4076), ligand present: yes
Recorded normalized RNA/DNA level with ligand (log10) for the following variants
Quick one: just the number, no unit, thanks!

### Prompt Form field: reported normalized RNA/DNA level with ligand (log10) of GUUCAA
### Response 1.89

### Prompt Look up normalized RNA/DNA level with ligand (log10) for this variant: GGUAGG
### Response 1.69

### Prompt Please report the recorded normalized RNA/DNA level with ligand (log10) for GCGGUC .
### Response 1.88

### Prompt Need normalized RNA/DNA level with ligand (log10) of ACAAAG , thanks.
### Response 1.9

### Prompt So what's the measured normalized RNA/DNA level with ligand (log10) for this one? GUCACA
### Response 1.92

### Prompt What value of measured normalized RNA/DNA level with ligand (log10) is listed for CAAUUU ?
### Response 1.93

### Prompt # normalized RNA/DNA level with ligand (log10) lookup, item AAUGCC
### Response 1.94

### Prompt For the variant shown here, CAUUAU , give the reported normalized RNA/DNA level with ligand (log10).
### Response 1.9

### Prompt Which value of normalized RNA/DNA level with ligand (log10) has been reported for GUGCAA in the records?
### Response 1.9

### Prompt Fill blank: measured normalized RNA/DNA level with ligand (log10) of the variant GACGGG is ____.
### Response 1.89

### Prompt Looking for the measured normalized RNA/DNA level with ligand (log10) of ACCCCA , can you help?
### Response 1.96

### Prompt What normalized RNA/DNA level with ligand (log10) value was documented for this variant, CCUAGU ?
### Response 1.92
